target: Dihydrofolate reductase (Homo sapiens); test: Inhibition of DHFR (unknown origin) using dihydro folic acid as substrate at 0.5 mM preincubated with compound for 5 mins followed by substrate addition and measured after 30 mins in presence of NADPH by absorbance based assay relative to control; settings: time 35.0 min
endpoint name: inhibition (%)

{"columns": ["smiles data", "tested system", "numeric value"],
 "data": [
  ["CC1(C)OC(=O)C(Cc2cn(-c3ccccc3)nn2)(Cc2c[nH]c3ccccc23)C(=O)O1", "Dihydrofolate reductase (Homo sapiens)", 89.7],
  ["CC1(C)OC(=O)C(Cc2cn(-c3ccc(F)cc3)nn2)(Cc2cn(Cc3ccc(C#N)cc3)c3ccccc23)C(=O)O1", "Dihydrofolate reductase (Homo sapiens)", 91.7],
  ["COc1ccc(-n2cc(CC3(Cc4cn(Cc5ccc(C#N)cc5)c5ccccc45)C(=O)OC(C)(C)OC3=O)nn2)cc1", "Dihydrofolate reductase (Homo sapiens)", 92.3],
  ["CC1(C)OC(=O)C(Cc2cn(-c3ccc(Br)cc3)nn2)(Cc2cn(Cc3ccc(C#N)cc3)c3ccccc23)C(=O)O1", "Dihydrofolate reductase (Homo sapiens)", 91.5],
  ["CC1(C)OC(=O)C(Cc2cn(-c3ccc(F)cc3)nn2)(Cc2c[nH]c3ccccc23)C(=O)O1", "Dihydrofolate reductase (Homo sapiens)", 91.7],
  ["COc1ccc(-n2cc(CC3(Cc4c[nH]c5ccccc45)C(=O)OC(C)(C)OC3=O)nn2)cc1", "Dihydrofolate reductase (Homo sapiens)", 90.9],
  ["CC1(C)OC(=O)C(Cc2cn(-c3ccccc3)nn2)(Cc2cn(CCC#N)c3ccccc23)C(=O)O1", "Dihydrofolate reductase (Homo sapiens)", 87.3],
  ["C#CCC1(Cc2cn(CCC#N)c3ccccc23)C(=O)OC(C)(C)OC1=O", "Dihydrofolate reductase (Homo sapiens)", 46.2]
]}

* * *

This document collects IC50 values reported for UniProt P00374.

{"columns": ["smiles data", "IC50 (µM)"],
 "data": [
  ["CC1(C)OC(=O)C(Cc2cn(-c3ccc(Br)cc3)nn2)(Cc2cn(CCC#N)c3ccccc23)C(=O)O1", 11.3],
  ["Cc1ccccc1-n1cc(CC2(Cc3cn(Cc4ccc(C#N)cc4)c4ccccc34)C(=O)OC(C)(C)OC2=O)nn1", 14.5],
  ["Cc1ccccc1-n1cc(CC2(Cc3c[nH]c4ccccc34)C(=O)OC(C)(C)OC2=O)nn1", 19.6]
]}

* * *

target: UniProtKB P00374; assay: Inhibition of DHFR (unknown origin) using dihydro folic acid as substrate at 0.5 mM preincubated with compound for 5 mins followed by substrate addition and measured after 30 mins in presence of NADPH by absorbance based assay relative to control; settings: time 35.0 min

{"columns": ["molecule", "inhibition [%]"],
 "data": [
  ["COc1ccc(OC(=O)C(Cc2cn(-c3ccc(F)cc3)nn2)Cc2cn(CCC#N)c3ccccc23)cc1 (stereo not given)", 91.3],
  ["N#CCCn1cc(C=O)c2ccccc21", 24.8],
  ["CC1(C)OC(=O)C(=Cc2cn(Cc3ccc(C#N)cc3)c3ccccc23)C(=O)O1", 30.2],
  ["N#Cc1ccc(Cn2cc(C=O)c3ccccc32)cc1", 25.2],
  ["CC1(C)OC(=O)C(Cc2cn(-c3ccc(Br)cc3)nn2)(Cc2c[nH]c3ccccc23)C(=O)O1", 91.6]
]}

* * *

Target: Dihydrofolate reductase (Homo sapiens) (UniProt P00374)
Sequence (whole entry): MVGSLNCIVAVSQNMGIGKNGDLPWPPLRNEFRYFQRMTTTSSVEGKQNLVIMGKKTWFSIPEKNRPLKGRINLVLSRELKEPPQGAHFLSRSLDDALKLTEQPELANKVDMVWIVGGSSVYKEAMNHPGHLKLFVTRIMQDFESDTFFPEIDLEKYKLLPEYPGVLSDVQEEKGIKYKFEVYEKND
Assay: Inhibition of DHFR (unknown origin) using dihydro folic acid as substrate at 0.5 mM preincubated with compound for 5 mins followed by substrate addition and measured after 30 mins in presence of NADPH by absorbance based assay relative to control
Conditions: time 35.0 min
endpoint name: inhibition (%)

{"columns": ["compound", "tested system", "numeric value"],
 "data": [
  ["Cc1ccccc1-n1cc(CC2(Cc3cn(Cc4ccc(C#N)cc4)c4ccccc34)C(=O)OC(C)(C)OC2=O)nn1", "Dihydrofolate reductase (Homo sapiens) (UniProt P00374)", 90.6],
  ["Cc1ccccc1-n1cc(CC2(Cc3cn(CCC#N)c4ccccc34)C(=O)OC(C)(C)OC2=O)nn1", "Dihydrofolate reductase (Homo sapiens) (UniProt P00374)", 89.4],
  ["CC1(C)OC(=O)C(Cc2cn(-c3ccc(F)cc3)nn2)(Cc2cn(CCC#N)c3ccccc23)C(=O)O1", "Dihydrofolate reductase (Homo sapiens) (UniProt P00374)", 92.5],
  ["CC1(C)OC(=O)C(Cc2cn(CCC#N)c3ccccc23)C(=O)O1", "Dihydrofolate reductase (Homo sapiens) (UniProt P00374)", 38.9],
  ["CC1(C)OC(=O)C(Cc2c[nH]c3ccccc23)C(=O)O1", "Dihydrofolate reductase (Homo sapiens) (UniProt P00374)", 36.2],
  ["CC1(C)OC(=O)C(Cc2cn(-c3ccc(C(F)(F)F)cc3)nn2)(Cc2c[nH]c3ccccc23)C(=O)O1", "Dihydrofolate reductase (Homo sapiens) (UniProt P00374)", 91.3],
  ["CC1(C)OC(=O)C(Cc2cn(-c3ccc(C(F)(F)F)cc3)nn2)(Cc2cn(Cc3ccc(C#N)cc3)c3ccccc23)C(=O)O1", "Dihydrofolate reductase (Homo sapiens) (UniProt P00374)", 91.8],
  ["C#CCC1(Cc2cn(Cc3ccc(C#N)cc3)c3ccccc23)C(=O)OC(C)(C)OC1=O", "Dihydrofolate reductase (Homo sapiens) (UniProt P00374)", 41.4],
  ["CC1(C)OC(=O)C(=Cc2cn(CCC#N)c3ccccc23)C(=O)O1", "Dihydrofolate reductase (Homo sapiens) (UniProt P00374)", 35.3],
  ["Cc1ccccc1-n1cc(CC2(Cc3c[nH]c4ccccc34)C(=O)OC(C)(C)OC2=O)nn1", "Dihydrofolate reductase (Homo sapiens) (UniProt P00374)", 90.7],
  ["CC1(C)OC(=O)C(Cc2cn(Cc3ccc(C#N)cc3)c3ccccc23)C(=O)O1", "Dihydrofolate reductase (Homo sapiens) (UniProt P00374)", 25.5],
  ["C#CCC1(Cc2c[nH]c3ccccc23)C(=O)OC(C)(C)OC1=O", "Dihydrofolate reductase (Homo sapiens) (UniProt P00374)", 40.2],
  ["CC1(C)OC(=O)C(Cc2cn(-c3ccccc3)nn2)(Cc2cn(Cc3ccc(C#N)cc3)c3ccccc23)C(=O)O1", "Dihydrofolate reductase (Homo sapiens) (UniProt P00374)", 86.2],
  ["CC1(C)OC(=O)C(Cc2cn(-c3ccc(Br)cc3)nn2)(Cc2cn(CCC#N)c3ccccc23)C(=O)O1", "Dihydrofolate reductase (Homo sapiens) (UniProt P00374)", 91.6],
  ["COc1ccc(-n2cc(CC3(Cc4cn(CCC#N)c5ccccc45)C(=O)OC(C)(C)OC3=O)nn2)cc1", "Dihydrofolate reductase (Homo sapiens) (UniProt P00374)", 91.8],
  ["COc1ccc(OC(=O)C(Cc2cn(-c3ccc(F)cc3)nn2)Cc2cn(Cc3ccc(C#N)cc3)c3ccccc23)cc1 (stereo not drawn)", "Dihydrofolate reductase (Homo sapiens) (UniProt P00374)", 90.9],
  ["COc1ccc(OC(=O)C(Cc2cn(-c3ccc(Br)cc3)nn2)Cc2cn(Cc3ccc(C#N)cc3)c3ccccc23)cc1 (stereo not drawn)", "Dihydrofolate reductase (Homo sapiens) (UniProt P00374)", 86.7],
  ["CC1(C)OC(=O)C(Cc2cn(-c3ccc(C(F)(F)F)cc3)nn2)(Cc2cn(CCC#N)c3ccccc23)C(=O)O1", "Dihydrofolate reductase (Homo sapiens) (UniProt P00374)", 90.5]
]}

* * *

Molecular target: Dihydrofolate reductase (Homo sapiens)
Sequence (P00374 whole entry): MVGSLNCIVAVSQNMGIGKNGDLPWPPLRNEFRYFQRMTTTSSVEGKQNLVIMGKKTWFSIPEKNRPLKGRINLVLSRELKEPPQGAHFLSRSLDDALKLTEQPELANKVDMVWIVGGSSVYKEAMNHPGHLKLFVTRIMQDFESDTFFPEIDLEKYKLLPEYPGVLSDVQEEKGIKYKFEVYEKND
pIC50: −log10 of the molar value.
Everything with pIC50 lower than 5 is condition not met; everything else, including exactly 5, is condition met.

{"columns": ["smiles data", "category"],
 "data": [
  ["Cc1ccccc1-n1cc(CC2(Cc3cn(CCC#N)c4ccccc34)C(=O)OC(C)(C)OC2=O)nn1", "condition not met"],
  ["COc1ccc(-n2cc(CC3(Cc4cn(CCC#N)c5ccccc45)C(=O)OC(C)(C)OC3=O)nn2)cc1", "condition met"],
  ["CC1(C)OC(=O)C(Cc2cn(-c3ccccc3)nn2)(Cc2c[nH]c3ccccc23)C(=O)O1", "condition not met"],
  ["CC1(C)OC(=O)C(Cc2cn(-c3ccccc3)nn2)(Cc2cn(Cc3ccc(C#N)cc3)c3ccccc23)C(=O)O1", "condition not met"],
  ["COc1ccc(-n2cc(CC3(Cc4c[nH]c5ccccc45)C(=O)OC(C)(C)OC3=O)nn2)cc1", "condition met"],
  ["CC1(C)OC(=O)C(Cc2cn(-c3ccccc3)nn2)(Cc2cn(CCC#N)c3ccccc23)C(=O)O1", "condition not met"]
]}
